TARGET DESC: T1, human Tigit extracellular domain recombinant protein hTigit-his (Acrobiosystem, Cat.TIT-H2H3) (human, UniProt Q495A1 22-141)
T1 construct: extracellular domain; Bought; not shown: his tag
T1 sequence (looked up): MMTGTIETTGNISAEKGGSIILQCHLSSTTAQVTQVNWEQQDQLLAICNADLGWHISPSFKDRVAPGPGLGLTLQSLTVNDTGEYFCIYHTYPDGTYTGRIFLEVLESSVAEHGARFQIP
ASSAY DETAILS: BLI epitope binning (ForteBIO QKe), hTigit-his on anti-Penta-HIS sensor; competitor R0300
We use 0.5 as the dividing line for epitope binning signal (name and unit not given): on or above the line is YES, below is NO.

query: Hi, just wondering whether Tigit-18 (antibody, V domains shown) VH: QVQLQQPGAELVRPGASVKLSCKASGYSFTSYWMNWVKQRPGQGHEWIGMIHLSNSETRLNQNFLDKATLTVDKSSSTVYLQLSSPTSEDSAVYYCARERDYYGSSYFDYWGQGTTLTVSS VL: DIVMTQSPASLVVSLGQRATISCRTSQSVSTSSYSYMHWYQQKPGQPPKLLIKNASNLESGVPARFSASGSGTDFTLNIHPVEEEDAATYYCQHSWEIPRTFGGGTKLEIK shows epitope binning signal (name and unit not given) of 0.5 or higher.
result: YES

query: API: above_or_equal(metric=epitope binning signal (name and unit not given), cutoff=0.5) for item Tigit-5 mouse monoclonal antibody (antibody, V domains shown, Mouse monoclonal antibody from hybridoma) VH: QVQLQQPGAELVRPGASVKLSCKASGYSFTSYWMNWVKQRPGQGLEWIGMIRPSDSETRLNQMFKDKATLTVDKSSSTAYMQLSSPTSDDSAVYYCAGIHDYGHGAYWGQGTLVTVSA VL: DIQMIQSPASLSVSVGETVTITCRASENIYSNLAWYQQKQGKSPQLLVYAASHLPDGVPSRFSGSGSGTQYSLKINSLQSEDFGSYYCQHFWGTPRTFGGGTKLEIKR
result: YES

query: Hi team, for 3Tigit-29 mouse monoclonal antibody (antibody, V domains shown, Mouse monoclonal antibody from hybridoma) VH: EVQLQQSGPELVKPGASVKISCKASGYTFTDYNMHWVKQSLGKSLEWIGYVNSFNGNTGYSQKFKSKVTLTVDRSSRTAYMDLRSLTSEDSAVFYCARSSRGGFAYWGQGTLVTVSA VL: QIVLTQSPAIMSASPGEKVTMTCSASSSVSYMHWYQQKSGTSPKRWIYDTSKLASGVPARFSGSVSGTSYSLTISSMEAEDAATYYCQQWSSNSLTFGAGTKLELKR , is the recorded epitope binning signal (name and unit not given) at or above 0.5?
result: NO

query: Say whether 3Tigit-12 mouse monoclonal antibody (antibody, V domains shown, Mouse monoclonal antibody from hybridoma) VH: QVQLQQSGAELVRPGTSVKMSCKAAGYTFTNYWIGWVKQRPGHGLEWIGDIYPGGGYTNYDEKFKGKATLTADTSSRTAYMQLSSLTSEDSAIYHCVNGGYGSTYGYFDVWGAGTTVTVSS VL: DIVMSQSPSSLPVSVGEKVTMSCKSSQSLLFSSDQKNYLAWYQQKPGQSPKLLIYWASTRESGVPDRLTGSGSGTDFTLTISSVKAEDLAVYYCQQYHKYPFTFGGGTKLEIKR shows epitope binning signal (name and unit not given) of 0.5 or more.
result: NO

query: Check the entry 3Tigit-16 mouse monoclonal antibody (antibody, V domains shown, Mouse monoclonal antibody from hybridoma) VH: EVQLQQSGPELVKPGASVKMSCKASGFTFTDYFMDWVKQSRGASFEWIGRLNPNNGRTSYNQKFKGKATLTVDKSSSTAYMELNSLTSEDSAVYYCARGDLGRWYFDVWGAGTTVTVSS VL: QIVLTQSPAIMSASPGEKVTMTCSASSSVSYMHWYQQKSGTSPKRWIYDTSKLASGVPTRFSGSGSGTSYSLTISSMEAEDAASYFCQQWSSNSLTFGAGTKLELKR : does epitope binning signal (name and unit not given) equal or exceed 0.5?
result: NO
